Recorded values, source patent US9605017B2.

Tested on: HeLa (cervical cancer)
testDescription: Cytotoxicity test with sulphorhodamine B, 72 h, HeLa line
measurementConditions: Homo sapiens, HeLa, read-out: Cytotoxic activity class, HeLa (cervical cancer)
measuredEndpoint: IC50

{"molecule": "C=CC1C[N@@]2CCC1C[C@@H]2[C@@H](OCc1cn(CC2OC(n3cc(F)c(=O)[nH]c3=O)CC2O)nn1)c1ccnc2ccccc12 (stereo partly shown)", "measuredEndpoint": "IC50", "valueMeasured": "< 4 µg/mL"}
{"molecule": "C=CC1C[N@@]2CCC1C[C@@H]2[C@@H](OCc1cn(CC2OC(n3cc(F)c(=O)[nH]c3=O)CC2O)nn1)c1ccnc2ccc(OC)cc12 (stereo partly shown)", "measuredEndpoint": "IC50", "valueMeasured": "4 to 30 µg/mL"}
{"molecule": "[N-]=[N+]=NC[C@H]1O[C@@H](n2cc(F)c(O)nc2=O)C[C@@H]1O [5′-azido-2′,5′-dideoxy-5-fluorouridine, reference compound]", "measuredEndpoint": "IC50", "valueMeasured": "4 to 30 µg/mL"}
{"molecule": "O=c1[nH]c(=O)n(C2CC(O)C(Cn3cc(C4CN5CCC4C[C@@H]5[C@@H](O)c4ccnc5ccccc45)nn3)O2)cc1F (stereo partly shown)", "measuredEndpoint": "IC50", "valueMeasured": "< 4 µg/mL"}

---

System: A549 (lung cancer)
testDescription: Cytotoxicity test with sulphorhodamine B, 72 h, A549 line
measurementConditions: Homo sapiens, A549, read-out: Cytotoxic activity class, A549 (lung cancer)

{"molecule": "O=c1[nH]c(=O)n(C2CC(O)C(Cn3cc(C4CN5CCC4C[C@@H]5[C@@H](O)c4ccnc5ccccc45)nn3)O2)cc1F (stereo partly drawn)", "IC50": "< 4 µg/mL"}
{"molecule": "COc1ccc2nccc([C@H](O)[C@H]3CC4CCN3CC4c3cn(CC4OC(n5cc(F)c(=O)[nH]c5=O)CC4O)nn3)c2c1 (stereo partly drawn)", "IC50": "4 to 30 µg/mL"}
{"molecule": "C=CC1C[N@@]2CCC1C[C@H]2[C@H](OCc1cn(CC2OC(n3cc(F)c(=O)[nH]c3=O)CC2O)nn1)c1ccnc2ccc(OC)cc12 (stereo partly drawn)", "IC50": "4 to 30 µg/mL"}

---

Tested on: HeLa (cervical cancer)
testDescription: Cytotoxicity test with sulphorhodamine B, 72 h, HeLa line
measurementConditions: Homo sapiens, HeLa, read-out: Cytotoxic activity class, HeLa (cervical cancer)
Quick reference for IC50 among some compounds
measuredEndpoint: IC50

{"compound": "C=CC1C[N@@]2CCC1C[C@H]2[C@H](OCc1cn(CC2OC(n3cc(F)c(=O)[nH]c3=O)CC2O)nn1)c1ccnc2ccccc12 (stereo partly drawn)", "valueMeasured": "4 to 30 µg/mL"}
{"compound": "COc1ccc2nccc([C@@H](O)[C@@H]3CC4CC[N@]3CC4c3cn(CC4OC(n5cc(F)c(=O)[nH]c5=O)CC4O)nn3)c2c1 (stereo partly drawn)", "valueMeasured": "4 to 30 µg/mL"}
{"compound": "COc1ccc2nccc([C@H](O)[C@H]3CC4CCN3CC4c3cn(CC4OC(n5cc(F)c(=O)[nH]c5=O)CC4O)nn3)c2c1 (stereo partly drawn)", "valueMeasured": "4 to 30 µg/mL"}

---

Quick reference for IC50 among some compounds
Tested on: HeLa (cervical cancer)
testDescription: Cytotoxicity test with sulphorhodamine B, 72 h, HeLa line
measurementConditions: Homo sapiens, HeLa, read-out: Cytotoxic activity class, HeLa (cervical cancer)
measuredEndpoint: IC50

{"compound": "O=c1[nH]c(=O)n(C2CC(O)C(Cn3cc(C4C[N@@]5CCC4C[C@H]5[C@H](O)c4ccnc5ccccc45)nn3)O2)cc1F (stereo partly shown)", "subjectOfTest": "HeLa (cervical cancer)", "measuredEndpoint": "IC50", "valueMeasured": "4 to 30 µg/mL"}
{"compound": "C=CC1C[N@@]2CCC1C[C@H]2[C@H](OCc1cn(CC2OC(n3cc(F)c(=O)[nH]c3=O)CC2O)nn1)c1ccnc2ccc(OC)cc12 (stereo partly shown)", "subjectOfTest": "HeLa (cervical cancer)", "measuredEndpoint": "IC50", "valueMeasured": "4 to 30 µg/mL"}
{"compound": "O=c1[nH]cc(F)c(=O)[nH]1 [5-fluorouracil, reference compound]", "subjectOfTest": "HeLa (cervical cancer)", "measuredEndpoint": "IC50", "valueMeasured": "< 4 µg/mL"}
{"compound": "O=c1[nH]c(=O)n([C@H]2C[C@H](O)[C@@H](CO)O2)cc1F [5-fluoro-2′-deoxyuridine, reference compound]", "subjectOfTest": "HeLa (cervical cancer)", "measuredEndpoint": "IC50", "valueMeasured": "< 4 µg/mL"}

---

Quick reference for IC50 among some molecules
Test system: A549 (lung cancer)
testDescription: Cytotoxicity test with sulphorhodamine B, 72 h, A549 line
measurementConditions: Homo sapiens, A549, read-out: Cytotoxic activity class, A549 (lung cancer)
measuredEndpoint: IC50

{"molecule": "COc1ccc2nccc([C@@H](O)[C@@H]3CC4CC[N@]3CC4c3cn(CC4OC(n5cc(F)c(=O)[nH]c5=O)CC4O)nn3)c2c1 (some centres unmarked) [QN5AFU]", "valueMeasured": "4 to 30 µg/mL"}
{"molecule": "C=CC1C[N@@]2CCC1C[C@@H]2[C@@H](OCc1cn(CC2OC(n3cc(F)c(=O)[nH]c3=O)CC2O)nn1)c1ccnc2ccccc12 (some centres unmarked) [PCN5AFU]", "valueMeasured": "< 4 µg/mL"}
{"molecule": "O=c1[nH]c(=O)n([C@H]2C[C@H](O)[C@@H](CO)O2)cc1F [5-fluoro-2′-deoxyuridine, reference compound]", "valueMeasured": "< 4 µg/mL"}
{"molecule": "C=CC1C[N@@]2CCC1C[C@@H]2[C@@H](OCc1cn(CC2OC(n3cc(F)c(=O)[nH]c3=O)CC2O)nn1)c1ccnc2ccc(OC)cc12 (some centres unmarked) [PQD5AFU]", "valueMeasured": "4 to 30 µg/mL"}
{"molecule": "O=c1[nH]c(=O)n(C2CC(O)C(Cn3cc(C4C[N@@]5CCC4C[C@H]5[C@H](O)c4ccnc5ccccc45)nn3)O2)cc1F (some centres unmarked) [CD5AFU]", "valueMeasured": "4 to 30 µg/mL"}
{"molecule": "O=c1[nH]cc(F)c(=O)[nH]1 [5-fluorouracil, reference compound]", "valueMeasured": "< 4 µg/mL"}
{"molecule": "C=CC1C[N@@]2CCC1C[C@H]2[C@H](OCc1cn(CC2OC(n3cc(F)c(=O)[nH]c3=O)CC2O)nn1)c1ccnc2ccccc12 (some centres unmarked) [PCD5AFU]", "valueMeasured": "4 to 30 µg/mL"}
{"molecule": "[N-]=[N+]=NC[C@H]1O[C@@H](n2cc(F)c(O)nc2=O)C[C@@H]1O [5′-azido-2′,5′-dideoxy-5-fluorouridine, reference compound]", "valueMeasured": "4 to 30 µg/mL"}
